- study.system: Serine/threonine-protein kinase pim-1 (Homo sapiens)
- Sequence (P11309 whole entry): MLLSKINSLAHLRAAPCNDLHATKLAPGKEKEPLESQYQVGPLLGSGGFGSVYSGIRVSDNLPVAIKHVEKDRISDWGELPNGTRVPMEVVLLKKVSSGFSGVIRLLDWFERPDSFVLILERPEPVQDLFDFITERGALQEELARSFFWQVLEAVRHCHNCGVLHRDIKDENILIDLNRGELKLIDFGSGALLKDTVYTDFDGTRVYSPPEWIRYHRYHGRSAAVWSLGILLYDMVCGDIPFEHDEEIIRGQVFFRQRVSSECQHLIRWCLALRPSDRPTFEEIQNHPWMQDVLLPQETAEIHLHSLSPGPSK
pIC50: −log10 of the molar value.

{"cpd.smiles": "COC(=O)[C@@]1(O)C[C@H]2O[C@]1(C)n1c3ccccc3c3c4c(c5c6ccccc6n2c5c31)C(=O)NC4", "pIC50": 6.82}
